SUBJECT_OF_TEST: UniProt P03369
ASSAY_COMMENT: biochemical
APPLIED_CONDITIONS: HIV-1 Protease IC50 (μM) 1M NaCl
Class key for IC50 values: band 1 (below 30 µM), band 2 (30 µM to below 100 µM), band 3 (100 µM or more)

Lab log: OC1(c2ccc(Cl)cc2)CCN(CCCC2(c3ccc(F)cc3)SCc3cccc(c3)CS2)CC1 — assign IC50 category
band 1

Input OC1(c2ccc(Cl)cc2)CCN(CCCC(O)(Cc2ccccc2)c2ccc(F)cc2)CC1 (stereo not drawn)
band 2

Input O=C(CCCN1CCC(O)(c2ccc(Cl)cc2)CC1)c1ccccc1-c1ccccc1
band 2

Input OC1(c2ccc(Cl)cc2)CCN(CCCN(CCc2ccccc2)Cc2ccccc2)CC1
band 3

Input OC1(c2ccccc2)CCN(CCCC2(c3ccc(F)cc3)OCCO2)CC1
band 3

Input C[N+]1(CCCC(=O)c2ccc(F)cc2)CCC(O)(c2ccc(Cl)cc2)CC1 (stereo not drawn)
band 2

Input C#CCC(CC#C)(CCN1CCC(O)(c2ccc(Cl)cc2)CC1)C(=O)c1ccc(F)cc1
band 2

Input C=C(CCCN1CCC(O)(c2ccc(Cl)cc2)CC1)c1ccc(F)cc1
band 2

Input O=C(Cc1ccccc1)N(CCCN1CCC(O)(c2ccc(Cl)cc2)CC1)Cc1ccccc1
band 2

Input OC(CCCN1CCC(O)(c2ccc(Cl)cc2)CC1)c1ccc(F)cc1 (stereo not drawn)
band 3

Input OC1(c2ccc(Cl)cc2)CCN(CCCC(O)(c2ccccc2)c2ccccc2-c2ccccc2)CC1 (stereo not drawn)
band 1

Input OC1(c2ccc(Cl)cc2)CCN(CCCC2(c3ccc(F)cc3)SCCCS2)CC1
band 1

Input OCC1(c2ccccc2)CCN(CCCC2(c3ccc(F)cc3)OCCO2)CC1
band 3

Input OC1(c2ccc(Cl)cc2)CCN(CCCC(O)(c2ccccc2)c2ccc(-c3ccccc3)cc2)CC1 (stereo not drawn)
band 1

Input Cc1ccc(C(=O)CC(CN2CCC(O)(c3ccc(Cl)cc3)CC2)c2ccccc2)cc1 (stereo not drawn)
band 2

Input CC[C@H]1CSC(CCCN2CCC(O)(c3ccc(Cl)cc3)CC2)(c2ccc(F)cc2)O1 (stereo partly drawn)
band 2

Input O=C(CCCN1CCC(CO)(c2ccccc2)CC1)c1ccc(F)cc1
band 3

Input OC1(c2ccc(Cl)cc2)CCN(CC#CC2(c3ccccc3)CO2)CC1 (stereo not drawn)
band 3

Input OC1(c2ccc(Cl)cc2)CCN(CCCC(O)(c2ccccc2)c2cccc(-c3ccccc3)c2)CC1 (stereo not drawn)
band 1

---

SUBJECT_OF_TEST: HIV-1 protease (Human immunodeficiency virus type 1 group M subtype B)
ASSAY_COMMENT: biochemical
Criterion: HIV-1 Protease Therapeutic Index (LD50 /IC50) strictly less than 0.6. Met: t. Not met: f.

Bench note: check whether O=C(CCCN1CCC(O)(c2ccc(Cl)cc2)CC1)c1ccc(-c2ccccc2)cc1 shows HIV-1 Protease Therapeutic Index (LD50 /IC50) below 0.6
f

Input C=C(CCCN1CCC(O)(c2ccc(Cl)cc2)CC1)c1ccc(F)cc1
f

Input C=C(CCC[N+]1([O-])CCC(O)(c2ccc(Cl)cc2)CC1)c1ccc(F)cc1 (centres unmarked)
f

Input C[C@@H]1SC(CCCN2CCC(O)(c3ccc(Cl)cc3)CC2)(c2ccc(F)cc2)S[C@H]1C (relative stereo)
t

Input OC1(c2ccccc2)CCN(CCCC2(c3ccccc3)OCCO2)CC1
f

Input OC1(c2ccc(Cl)cc2)CCN(CCCC2(c3ccc(F)cc3)SCCS2)CC1
f

Input OC1(c2ccc(Cl)cc2)CCN(CCC[Si](c2ccccc2)(c2ccccc2)c2ccccc2)CC1
t

Input O=C(CCCN1CCC(O)(c2ccc(Cl)cc2)CC1)c1cccc(-c2ccccc2)c1
t

Input OC1(c2ccc(Cl)cc2)CCN(CCCC2(c3ccccc3)OCCO2)CC1
f

Input O=C(CCC[N+]1([O-])CCC(O)(c2ccc(Cl)cc2)CC1)c1ccc(F)cc1 (centres unmarked)
f

Input C[N+]1(CCCC(=O)c2ccc(F)cc2)CCC(O)(c2ccc(Cl)cc2)CC1 (centres unmarked)
f

Input OC1(c2ccc(Cl)cc2)CCN(CCCC2(c3ccc(F)cc3)OCCO2)CC1
f

Input OC1(c2ccc(Cl)cc2)CCN(CCCC2(c3ccc(F)cc3)SCc3ccccc3CS2)CC1
f

Input O=C(CCCN1CCC(O)(c2ccccc2)CC1)c1ccccc1
f

Input OC(CCCN1CCC(O)(c2ccc(Cl)cc2)CC1)c1ccc(F)cc1 (centres unmarked)
t

Input O=C(C#CCN1CCC(O)(c2ccc(Cl)cc2)CC1)c1cccc(-c2ccccc2)c1
t

Input O=C(CCCN1CCC(O)(c2ccc(Cl)cc2)CC1)c1ccncc1
f

Input OC1(c2ccc(Cl)cc2)CCN(CCCC2(c3ccc(F)cc3)SCCCCS2)CC1
f

Input COCCN(CCN1CCC(O)(c2ccc(Cl)cc2)CC1)Cc1ccccc1
t

Input C=CC(O)(CCCN1CCC(O)(c2ccc(Cl)cc2)CC1)c1ccc(F)cc1 (centres unmarked)
f

Input O=C(CCCN1CCC(O)(c2ccc(Cl)cc2)C(O)C1)c1ccc(F)cc1 (centres unmarked)
t

Input O=C(Cc1ccccc1)N(CCCN1CCC(O)(c2ccc(Cl)cc2)CC1)Cc1ccccc1
t

Input O=C(CCC[N+]1(CCc2ccccc2)CCC(O)(c2ccc(Cl)cc2)CC1)c1ccc(F)cc1 (centres unmarked)
t

Input O=C(CCC[N+]1([O-])CCC(O)(c2ccc(Cl)cc2)CC1)c1cccc(-c2ccccc2)c1 (centres unmarked)
t
